Provide the recorded pIC50 for the entries that follow.
system: 947758-054-R-J2-PDC spheroid growth, percent test/control; experiment: Anticancer human tumor 947758-054-R-J2-PDC patient-derived colon adenocarcinoma cell line growth inhibition [CLK]; details: curve of first compound; second compound 1 µM; spheroids with HUVEC and MSC;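 further: spheroids exposed to compounds for one week before readout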
pIC50: −log10 of the molar value.

pIC50 reported for this compound COc1ccc([C@@H](O)c2cc(-c3ncnc4cc(N5CCOCC5)ccc34)c(F)cc2Cl)nn1 + CNC(=O)c1ccc(Nc2nc(OC3CCCC3)c3c(-c4ccc5nc(C)oc5c4)c[nH]c3n2)c(OC)c1 : 6.94

pIC50 reported for this compound Nc1ccn(C2OC(CO)C(O)C2(F)F)c(=O)n1 (stereo unspecified) + CNC(=O)c1ccc(Nc2nc(OC3CCCC3)c3c(-c4ccc5nc(C)oc5c4)c[nH]c3n2)c(OC)c1 : > 7.50

pIC50 reported for this compound O=C(c1cc(Cc2n[nH]c(=O)c3ccccc23)ccc1F)N1CCN(C(=O)C2CC2)CC1 + CNC(=O)c1ccc(Nc2nc(OC3CCCC3)c3c(-c4ccc5nc(C)oc5c4)c[nH]c3n2)c(OC)c1 : < 5.00

pIC50 reported for this compound CC(Nc1ccc2c(c1)OCCn1cc(N3C(=O)OCC3C(F)F)nc1-2)C(N)=O (stereo unspecified) + CNC(=O)c1ccc(Nc2nc(OC3CCCC3)c3c(-c4ccc5nc(C)oc5c4)c[nH]c3n2)c(OC)c1 : > 7.50

pIC50 reported for this compound C=CC(=O)Nc1cc(Nc2nccc(-c3cn(C)c4ccccc34)n2)c(OC)cc1N(C)CCN(C)C + CNC(=O)c1ccc(Nc2nc(OC3CCCC3)c3c(-c4ccc5nc(C)oc5c4)c[nH]c3n2)c(OC)c1 : 6.91

pIC50 reported for this compound CC(C)CC(NC(=O)C(Cc1ccccc1)NC(=O)c1cnccn1)B(O)O (stereo unspecified) + CN1CCN(c2cc(C(=O)Nc3cc4cc(-c5cnn(C)c5)ccc4cn3)ccn2)CC1 : > 9.02

pIC50 reported for this compound C=C(F)C(=O)N1CCN(c2nc(OCC3CCCN3C)nc3c2CCN(c2cccc4cccc(Cl)c24)C3)CC1CC#N (stereo unspecified) + CNC(=O)c1ccc(Nc2nc(OC3CCCC3)c3c(-c4ccc5nc(C)oc5c4)c[nH]c3n2)c(OC)c1 : > 7.50

pIC50 reported for this compound Cn1ncnc1[C@H]1c2n[nH]c(=O)c3cc(F)cc(c23)N[C@@H]1c1ccc(F)cc1 + CN1CCN(c2cc(C(=O)Nc3cc4cc(-c5cnn(C)c5)ccc4cn3)ccn2)CC1 : > 9.50

pIC50 reported for this compound CC1(C)CCC(CN2CCN(c3ccc(C(=O)NS(=O)(=O)c4ccc(NCC5CCOCC5)c([N+](=O)[O-])c4)c(Oc4cnc5[nH]ccc5c4)c3)CC2)=C(c2ccc(Cl)cc2)C1 + CNC(=O)c1ccc(Nc2nc(OC3CCCC3)c3c(-c4ccc5nc(C)oc5c4)c[nH]c3n2)c(OC)c1 : 5.64

pIC50 reported for this compound Nc1ccccc1NC(=O)c1ccc(CNC(=O)OCc2cccnc2)cc1 + CNC(=O)c1ccc(Nc2nc(OC3CCCC3)c3c(-c4ccc5nc(C)oc5c4)c[nH]c3n2)c(OC)c1 : 6.36

pIC50 reported for this compound Cn1ncnc1[C@H]1c2n[nH]c(=O)c3cc(F)cc(c23)N[C@@H]1c1ccc(F)cc1 + CNC(=O)c1ccc(Nc2nc(OC3CCCC3)c3c(-c4ccc5nc(C)oc5c4)c[nH]c3n2)c(OC)c1 : > 9.50

pIC50 reported for this compound C=CC(=O)N1CCN(c2nc(=O)n(-c3c(C)ccnc3C(C)C)c3nc(-c4c(O)cccc4F)c(F)cc23)C(C)C1 (stereo unspecified) + CN1CCN(c2cc(C(=O)Nc3cc4cc(-c5cnn(C)c5)ccc4cn3)ccn2)CC1 : > 7.50

pIC50 reported for this compound CCc1c2c(nc3ccc(O)cc13)-c1cc3c(c(=O)n1C2)COC(=O)[C@]3(O)CC + CNC(=O)c1ccc(Nc2nc(OC3CCCC3)c3c(-c4ccc5nc(C)oc5c4)c[nH]c3n2)c(OC)c1 : > 8.50

pIC50 reported for this compound NC(=O)C(=Cn1cnc(-c2cc(C(F)(F)F)cc(C(F)(F)F)c2)n1)c1cncnc1 + CN1CCN(c2cc(C(=O)Nc3cc4cc(-c5cnn(C)c5)ccc4cn3)ccn2)CC1 : > 8.02

pIC50 reported for this compound C=CC(=O)N1CCN(c2nc(=O)n(-c3c(C)ccnc3C(C)C)c3nc(-c4c(O)cccc4F)c(F)cc23)C(C)C1 (stereo unspecified) + CNC(=O)c1ccc(Nc2nc(OC3CCCC3)c3c(-c4ccc5nc(C)oc5c4)c[nH]c3n2)c(OC)c1 : > 7.50

pIC50 reported for this compound CCc1c2c(nc3ccc(O)cc13)-c1cc3c(c(=O)n1C2)COC(=O)[C@]3(O)CC + CN1CCN(c2cc(C(=O)Nc3cc4cc(-c5cnn(C)c5)ccc4cn3)ccn2)CC1 : > 8.50

pIC50 reported for this compound O=c1[nH]cc(F)c(=O)[nH]1 + CNC(=O)c1ccc(Nc2nc(OC3CCCC3)c3c(-c4ccc5nc(C)oc5c4)c[nH]c3n2)c(OC)c1 : > 7.50

pIC50 reported for this compound CCN1CCN(Cc2ccc(Nc3ncc(F)c(-c4cc(F)c5nc(C)n(C(C)C)c5c4)n3)nc2)CC1 + CN1CCN(c2cc(C(=O)Nc3cc4cc(-c5cnn(C)c5)ccc4cn3)ccn2)CC1 : > 8.50

pIC50 reported for this compound COc1c(OCCCN2CCOCC2)ccc2c3n(c(=NC(=O)c4cnc(N)nc4)nc12)CCN3 + CNC(=O)c1ccc(Nc2nc(OC3CCCC3)c3c(-c4ccc5nc(C)oc5c4)c[nH]c3n2)c(OC)c1 : > 8.50

pIC50 reported for this compound O=c1[nH]cc(F)c(=O)[nH]1 + CN1CCN(c2cc(C(=O)Nc3cc4cc(-c5cnn(C)c5)ccc4cn3)ccn2)CC1 : > 7.50

pIC50 reported for this compound COc1ccc([C@@H](O)c2cc(-c3ncnc4cc(N5CCOCC5)ccc34)c(F)cc2Cl)nn1 + CN1CCN(c2cc(C(=O)Nc3cc4cc(-c5cnn(C)c5)ccc4cn3)ccn2)CC1 : > 7.50

Recorded values, source PubChem BioAssay AID2060605.
